tested on: HT29 colon; experiment: NCI tumour cell line growth inhibition, 48 h
MEASURE_NAME: TGI (µM)
All answers are understood in µM, so give the number only.

Check out these entries, answers already filled in.
# COMPOUND, TEST_TARGET, RESULT_UNITS, TGI
records = [
    ("O=C1CC(n2cccc2)c2c(Br)sc(Br)c21 (configuration not stated)", "HT29 colon", "µM", 32.1),
    ("CC(C)C1(O)C(=O)N(c2c(F)c(F)c(F)c(F)c2F)C(=S)N1CCSc1ccccc1 (configuration not stated)", "HT29 colon", "µM", 32.5),
    ("COC1(OC)c2no[n+]([O-])c2C(OC)(OC)c2c1no[n+]2[O-]", "HT29 colon", "µM", 37.7),
    ("CCOc1ccc(C(CN2CCOCC2)C(C)=O)cc1OC (configuration not stated)", "HT29 colon", "µM", 34.8),
]

Continue with the next compound.
Request: Give the observed TGI of CN(C=O)/C=C/c1cc(O)ccc1O for HT29 colon.
Result: 49.2
